Molecular target: recombinant cohesin (CipA of Clostridium josui, BAA32429) (Clostridium josui)
Experiment: batch elution of N-terminal fusion from cohesin carrier with 5 mM EGTA at 4 C, SDS-PAGE densitometry, 360 min set to 100
Ends that are not written are not given here.
Property: rate of eluted recombinant protein (%) at 5 min
All answers are understood in %, so give the number only.

Here's what some known entries look like.
// fetch rate of eluted recombinant protein (%) at 5 min given entry recombinant JNK3 of which a wild-type dockerin was fused at the N-terminal (protein, not shown: large carriers; small tags and cut ends, not fully specified (C-terminus)) MGLKGDVNNDGAIDALDIAALKKAILTQSTSNINLTNADMNNDGNIDAIDFAQLKVKLLN 11.5

Supply reported rate of eluted recombinant protein (%) at 5 min belonging to this binder: recombinant JNK3 of which an I49N-substituted dockerin polypeptide was fused at the N-terminal (protein, not shown: large carriers; small tags and cut ends) MGLKGDVNNDGAIDALDIAALKKAILTQSTSNINLTNADMNNDGNIDANDFAQLKVKLLN 65.9

Quick one: give measured rate of eluted recombinant protein (%) at 5 min for recombinant JNK3 of which an I49V-substituted dockerin polypeptide is fused at the N-terminal (protein, not shown: large carriers; small tags and cut ends) MGLKGDVNNDGAIDALDIAALKKAILTQSTSNINLTNADMNNDGNIDAVDFAQLKVKLLN 25.3

***
Name the recorded rate of eluted recombinant protein (%) at 5 min of the item recombinant JNK3 of which an I49T-substituted dockerin polypeptide is fused at the N-terminal (protein, not shown: large carriers; small tags and cut ends) MGLKGDVNNDGAIDALDIAALKKAILTQSTSNINLTNADMNNDGNIDATDFAQLKVKLLN in your answer. 66.5

Please list rate of eluted recombinant protein (%) at 5 min recorded for the binder recombinant JNK3 of which an L16T/I49T-substituted dockerin polypeptide is fused at the N-terminal (protein, not shown: large carriers; small tags and cut ends) MGLKGDVNNDGAIDATDIAALKKAILTQSTSNINLTNADMNNDGNIDATDFAQLKVKLLN 55.2

Fill in reported rate of eluted recombinant protein (%) at 5 min for this entry: recombinant JNK3 of which an I49G-substituted dockerin polypeptide is fused at the N-terminal (protein, not shown: large carriers; small tags and cut ends) MGLKGDVNNDGAIDALDIAALKKAILTQSTSNINLTNADMNNDGNIDAGDFAQLKVKLLN 100

Kindly indicate its recorded rate of eluted recombinant protein (%) at 5 min. Item: recombinant JNK3 of which an I49S-substituted dockerin polypeptide is fused at the N-terminal (protein, not shown: large carriers; small tags and cut ends) MGLKGDVNNDGAIDALDIAALKKAILTQSTSNINLTNADMNNDGNIDASDFAQLKVKLLN 74.7
